Reference for the values: a melting point compilation (Tetko et al.; mined from patent text by program, amines drawn as free bases though some values may be those of a salt)

readout: melting point

[
  {
    "compound": "Cc1ncc2cc(-c3c(Cl)cccc3Cl)c(NC(=O)c3ccco3)nc2n1",
    "melting point": "228 to 230 °C"
  },
  {
    "compound": "ClCCCCOc1ccc2ccccc2c1",
    "melting point": "112 °C"
  },
  {
    "compound": "CCOC(=O)c1c(C)cc2c(c1C)c(=O)n(-c1ccccc1Cl)c(=O)n2CCCN(C)C",
    "melting point": "155 to 156 °C"
  }
]

Items follow; give melting point for each.
1. CCOC(=O)C1=C(C)NN=C(CC)C1c1ccc([N+](=O)[O-])cc1 (centres undefined)
2. CS(=O)(=O)CC(=O)CCc1ccccc1

Response:
["141 °C", "97.6 to 98.4 °C"]
